Tested on: L428 Hodgkin Lymphoma
protocol.description: In vitro cytotoxicity, 4-load auristatin ADCs on L428
Format: cell-based
assay.context: 4-load ADC

{"columns": ["molecule", "result.qualifier", "In vitro IC50 L428 Hodgkin Lymphoma / ng/mL"],
 "data": [
  ["h1F6-35(4): 4-load auristatin ADC targeting CD70: h1F6 antibody conjugated to drug linker compound 35 (conjugate, chains of the INN, looked up, auristatin drug linker compound 35, 4-load) VH: QVQLVQSGAEVKKPGASVKVSCKASGYTFTNYGMNWVRQAPGQGLKWMGWINTYTGEPTYADAFKGRVTMTRDTSISTAYMELSRLRSDDTAVYYCARDYGDYGMDYWGQGTTVTVSS VL: DIVMTQSPDSLAVSLGERATINCRASKSVSTSGYSFMHWYQQKPGQPPKLLIYLASNLESGVPDRFSGSGSGTDFTLTISSLQAEDVAVYYCQHSREVPWTFGQGTKVEIK", "=", 2],
  ["h1F6-38(4): 4-load auristatin ADC targeting CD70: h1F6 antibody conjugated to drug linker compound 38 (conjugate, chains of the INN, looked up, auristatin drug linker compound 38, 4-load) VH: QVQLVQSGAEVKKPGASVKVSCKASGYTFTNYGMNWVRQAPGQGLKWMGWINTYTGEPTYADAFKGRVTMTRDTSISTAYMELSRLRSDDTAVYYCARDYGDYGMDYWGQGTTVTVSS VL: DIVMTQSPDSLAVSLGERATINCRASKSVSTSGYSFMHWYQQKPGQPPKLLIYLASNLESGVPDRFSGSGSGTDFTLTISSLQAEDVAVYYCQHSREVPWTFGQGTKVEIK", "=", 2],
  ["h1F6-37(4): 4-load auristatin ADC targeting CD70: h1F6 antibody conjugated to drug linker compound 37 (conjugate, chains of the INN, looked up, auristatin drug linker compound 37, 4-load) VH: QVQLVQSGAEVKKPGASVKVSCKASGYTFTNYGMNWVRQAPGQGLKWMGWINTYTGEPTYADAFKGRVTMTRDTSISTAYMELSRLRSDDTAVYYCARDYGDYGMDYWGQGTTVTVSS VL: DIVMTQSPDSLAVSLGERATINCRASKSVSTSGYSFMHWYQQKPGQPPKLLIYLASNLESGVPDRFSGSGSGTDFTLTISSLQAEDVAVYYCQHSREVPWTFGQGTKVEIK", "=", 2],
  ["h1F6-36(4): 4-load auristatin ADC targeting CD70: h1F6 antibody conjugated to drug linker compound 36 (conjugate, chains of the INN, looked up, auristatin drug linker compound 36, 4-load) VH: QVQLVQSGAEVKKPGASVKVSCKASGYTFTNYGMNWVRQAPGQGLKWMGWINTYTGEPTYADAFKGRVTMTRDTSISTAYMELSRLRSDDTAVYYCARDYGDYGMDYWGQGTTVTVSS VL: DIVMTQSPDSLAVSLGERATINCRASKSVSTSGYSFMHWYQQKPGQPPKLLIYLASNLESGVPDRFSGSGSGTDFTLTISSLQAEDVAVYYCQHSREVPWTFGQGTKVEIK", "=", 1],
  ["h1F6-mc-vc-MMAF(4): comparator 4-load h1F6 ADC having an mc-vc-MMAF drug linker (conjugate, chains of the INN, looked up, mc-vc-MMAF, 4-load, comparator 4-load h1F6 ADC having an mc-vc-MMAF drug linker) VH: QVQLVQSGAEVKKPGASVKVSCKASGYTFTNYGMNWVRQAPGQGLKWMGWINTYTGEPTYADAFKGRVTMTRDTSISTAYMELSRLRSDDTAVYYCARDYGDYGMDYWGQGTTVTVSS VL: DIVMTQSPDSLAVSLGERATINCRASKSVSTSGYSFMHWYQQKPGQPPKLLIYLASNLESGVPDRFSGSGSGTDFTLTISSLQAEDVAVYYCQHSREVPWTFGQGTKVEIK", "=", 7],
  ["h1F6-mc-vc-MMAE(4): comparator 4-load h1F6 ADC having an mc-vc-MMAE drug linker (conjugate, chains of the INN, looked up, mc-vc-MMAE, 4-load, comparator 4-load h1F6 ADC having an mc-vc-MMAE drug linker) VH: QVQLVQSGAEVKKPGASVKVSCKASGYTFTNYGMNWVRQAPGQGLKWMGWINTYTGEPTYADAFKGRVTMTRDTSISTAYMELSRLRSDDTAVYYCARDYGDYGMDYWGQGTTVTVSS VL: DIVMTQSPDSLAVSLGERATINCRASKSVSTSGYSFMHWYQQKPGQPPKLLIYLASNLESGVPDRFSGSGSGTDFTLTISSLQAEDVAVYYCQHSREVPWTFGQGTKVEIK", ">", 1000]
]}

src = patent US11857565B2
